Consider the following binders and their measured Kd readings.
- study target: T1, human IL-5 (human, UniProt P05113 20-134)
- T1 construct: also called hIL-5; recombinant human IL-5
- T1 sequence (looked up): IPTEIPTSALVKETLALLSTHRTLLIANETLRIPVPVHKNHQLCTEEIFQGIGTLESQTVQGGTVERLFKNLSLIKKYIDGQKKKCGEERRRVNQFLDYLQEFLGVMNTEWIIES
- protocol description: SPR as described in Example 2

| binder | Kd, nM |
| --- | --- |
| h5MP26H7 human IL-5 mAb (antibody, V domains shown) VH: EVQLVESGGGLVQPGGSLRLSCAASGFAFSSSFMSWVRQAPGKGLEWVSTINGNGGTYYADSMKGRFTISRDNVKSTVTLQMNSLKPEDTAVYYCAADWISGGYYFPALGYWGQGTQVTVSS VL: SYELTQSPSVSVAQTQTAKITCGGDNIGSKSVQWYQQKPGQAPVLAIYADTRRPSGIPERFSGSNSGNTATLTITGAQAEDEADYYCQVWDTSTNVAVFGGGTRLTIL | 0.0749 |
| h5MP90D9 human IL-5 mAb (antibody, V domains shown) VH: EVQLVESGGGLVQPGGSLRLSCAASGFAFSSSFMSWVRQAPGKGLEWVSTINGNGGTYYADSMKGRFTISRDNVKSTVTLQMNSLKPEDTAVYYCAADWISGGYYFPALGYWGQGTQVTVSS VL: SYELTQSPSVSVALRQTAKITCGGNNIGSLSTQWYQQKPGQAPVLVIYADNRRPSGIHERFSGSNSGNTATLTIGGAQAEDEADYYCQVWDNSANALVFGGGTHLTVL | 0.0264 |
| h5MP90G7 human IL-5 mAb (antibody, V domains shown) VH: EVQLVESGGGLVQPGGSLRLSCAASGFAFSSSFMSWVRQAPGKGLEWVSTINGNGGTYYADSMKGRFTISRDNVKSTVTLQMNSLKPEDTAVYYCAADWISGGYYFPALGYWGQGTQVTVSS VL: SYELTQSPSVSVALRQTAKITCGGNNIGRKSAQWYQQKPGQAPVLVIYADSRRPSGIPERFSGSNSGNTATLTISGAQAEDEADYYCQVWDSSANAAVFGGGTHLTVL | 0.113 |
